assay: Cytotoxicity against HEK293T cells assessed as decrease in cell viability after 72 hrs by MTT assay; assay type: toxicity, cell-based, HEK-293T; settings: human
Please use the following IC50 at 72 h ranges when assigning a class: bottom (below 20 µM), middle (20 µM to below 30 µM), top (30 µM or more)

[[record]]
molecule = "COc1ccc(C(=O)N/N=C/C2=Cc3ccccc3OC2)cc1"
label = "top"

[[record]]
molecule = "O=C(N/N=C/c1c(Cl)c2ccccc2oc1=O)c1ccccc1"
label = "middle"

[[record]]
molecule = "O=C(N/N=C/C1=Cc2ccccc2OC1)c1ccco1"
label = "top"

[[record]]
molecule = "O=C(N/N=C/c1c(Cl)c2ccccc2oc1=O)c1ccc(F)cc1"
label = "middle"

[[record]]
molecule = "O=C(N/N=C/C1=Cc2ccccc2OC1c1ccccc1)c1ccco1 (configuration not stated)"
label = "bottom"

[[record]]
molecule = "CC1Oc2ccccc2C=C1/C=N/NC(=O)c1ccco1 (configuration not stated)"
label = "middle"

[[record]]
molecule = "O=C(N/N=C/C1=Cc2ccccc2OC1c1ccccc1)c1ccc(Cl)cc1 (configuration not stated)"
label = "bottom"

[[record]]
molecule = "CC1Oc2ccccc2C=C1/C=N/NC(=O)c1ccncc1 (configuration not stated)"
label = "top"

[[record]]
molecule = "O=C(N/N=C/c1c(Cl)c2ccccc2oc1=O)c1ccc(O)cc1"
label = "top"

[[record]]
molecule = "COc1ccc(C(=O)N/N=C/C2=Cc3ccccc3OC2c2ccccc2)cc1 (configuration not stated)"
label = "top"

[[record]]
molecule = "CC1Oc2ccccc2C=C1/C=N/NC(=O)c1ccc(O)cc1 (configuration not stated)"
label = "top"

[[record]]
molecule = "O=C(N/N=C/c1c(Cl)c2ccccc2oc1=O)c1ccncc1"
label = "bottom"

[[record]]
molecule = "CC1Oc2ccccc2C=C1/C=N/NC(=O)c1ccccc1 (configuration not stated)"
label = "middle"

[[record]]
molecule = "O=C(N/N=C/C1=Cc2ccccc2OC1)c1cccs1"
label = "middle"


* * *

Catalogue of MIC values
tested on: Mycobacterium tuberculosis; assay: Antimycobacterial activity against Mycobacterium tuberculosis H37Rv after 45 days; format: functional
Where a name gives a salt, the structure may show the parent alone.
reported endpoint: MIC (µM)

[[record]]
molecule = "COc1ccc(C(=O)N/N=C/C2=Cc3ccccc3OC2)cc1"
system_tested = "Mycobacterium tuberculosis"
reported_endpoint = "MIC"
bound_operator = "="
result = 6.48

[[record]]
molecule = "O=C(N/N=C/c1c(Cl)c2ccccc2oc1=O)c1ccncc1"
system_tested = "Mycobacterium tuberculosis"
reported_endpoint = "MIC"
bound_operator = "="
result = 6.1

[[record]]
molecule = "O=C(N/N=C/C1=Cc2ccccc2OC1)c1ccco1"
system_tested = "Mycobacterium tuberculosis"
reported_endpoint = "MIC"
bound_operator = "="
result = 0.74

[[record]]
molecule = "CC[C@@H](CO)NCCN[C@@H](CC)CO [ETHAMBUTOL HYDROCHLORIDE]"
system_tested = "Mycobacterium tuberculosis"
reported_endpoint = "MIC"
bound_operator = "="
result = 7.64

[[record]]
molecule = "O=C(N/N=C/C1=Cc2ccccc2OC1)c1cccs1"
system_tested = "Mycobacterium tuberculosis"
reported_endpoint = "MIC"
bound_operator = "="
result = 7.03

[[record]]
molecule = "O=C(N/N=C/C1=Cc2ccccc2OC1)c1ccc(Cl)cc1"
system_tested = "Mycobacterium tuberculosis"
reported_endpoint = "MIC"
bound_operator = "="
result = 6.39

[[record]]
molecule = "O=C(N/N=C/c1c(Cl)c2ccccc2oc1=O)c1ccc(O)cc1"
system_tested = "Mycobacterium tuberculosis"
reported_endpoint = "MIC"
bound_operator = "="
result = 5.83

[[record]]
molecule = "CC1Oc2ccccc2C=C1/C=N/NC(=O)c1ccc(O)cc1 (centres undefined)"
system_tested = "Mycobacterium tuberculosis"
reported_endpoint = "MIC"
bound_operator = "="
result = 0.64

[[record]]
molecule = "O=C(N/N=C/C1=Cc2ccccc2OC1c1ccccc1)c1ccc(Cl)cc1 (centres undefined)"
system_tested = "Mycobacterium tuberculosis"
reported_endpoint = "MIC"
bound_operator = ">"
result = 5.14

[[record]]
molecule = "CC1Oc2ccccc2C=C1/C=N/NC(=O)c1ccco1 (centres undefined)"
system_tested = "Mycobacterium tuberculosis"
reported_endpoint = "MIC"
bound_operator = "="
result = 0.18

[[record]]
molecule = "Cc1nnsc1C(=O)N/N=C/C1=Cc2ccccc2OC1c1ccccc1 (centres undefined)"
system_tested = "Mycobacterium tuberculosis"
reported_endpoint = "MIC"
bound_operator = "="
result = 0.53

[[record]]
molecule = "CC1Oc2ccccc2C=C1/C=N/NC(=O)c1ccccc1 (centres undefined)"
system_tested = "Mycobacterium tuberculosis"
reported_endpoint = "MIC"
bound_operator = "="
result = 6.84

[[record]]
molecule = "COc1ccc(C(=O)N/N=C/C2=Cc3ccccc3OC2c2ccccc2)cc1 (centres undefined)"
system_tested = "Mycobacterium tuberculosis"
reported_endpoint = "MIC"
bound_operator = "="
result = 0.13

[[record]]
molecule = "Cc1nnsc1C(=O)N/N=C/c1c(Cl)c2ccccc2oc1=O"
system_tested = "Mycobacterium tuberculosis"
reported_endpoint = "MIC"
bound_operator = "="
result = 0.67

[[record]]
molecule = "O=C(N/N=C/C1=Cc2ccccc2OC1c1ccccc1)c1cccs1 (centres undefined)"
system_tested = "Mycobacterium tuberculosis"
reported_endpoint = "MIC"
bound_operator = ">"
result = 5.54

[[record]]
molecule = "CC1Oc2ccccc2C=C1/C=N/NC(=O)c1ccc(Cl)cc1 (centres undefined)"
system_tested = "Mycobacterium tuberculosis"
reported_endpoint = "MIC"
bound_operator = ">"
result = 6.12

[[record]]
molecule = "NNC(=O)c1ccncc1"
system_tested = "Mycobacterium tuberculosis"
reported_endpoint = "MIC"
bound_operator = "="
result = 1.45

[[record]]
molecule = "O=C(N/N=C/c1c(Cl)c2ccccc2oc1=O)c1ccccc1"
system_tested = "Mycobacterium tuberculosis"
reported_endpoint = "MIC"
bound_operator = "="
result = 6.12

[[record]]
molecule = "CC1Oc2ccccc2C=C1/C=N/NC(=O)c1cccs1 (centres undefined)"
system_tested = "Mycobacterium tuberculosis"
reported_endpoint = "MIC"
bound_operator = ">"
result = 6.7

[[record]]
molecule = "O=C(N/N=C/C1=Cc2ccccc2OC1c1ccccc1)c1ccc(F)cc1 (centres undefined)"
system_tested = "Mycobacterium tuberculosis"
reported_endpoint = "MIC"
bound_operator = "="
result = 1.34

[[record]]
molecule = "O=C(N/N=C/C1=Cc2ccccc2OC1c1ccccc1)c1ccco1 (centres undefined)"
system_tested = "Mycobacterium tuberculosis"
reported_endpoint = "MIC"
bound_operator = "="
result = 0.15

[[record]]
molecule = "COc1ccc(C(=O)N/N=C/C2=Cc3ccccc3OC2C)cc1 (centres undefined)"
system_tested = "Mycobacterium tuberculosis"
reported_endpoint = "MIC"
bound_operator = "="
result = 6.2

[[record]]
molecule = "O=C(N/N=C/c1c(Cl)c2ccccc2oc1=O)c1ccc(F)cc1"
system_tested = "Mycobacterium tuberculosis"
reported_endpoint = "MIC"
bound_operator = "="
result = 1.45

[[record]]
molecule = "CC1Oc2ccccc2C=C1/C=N/NC(=O)c1ccncc1 (centres undefined)"
system_tested = "Mycobacterium tuberculosis"
reported_endpoint = "MIC"
bound_operator = "="
result = 0.17


* * *

test: Cytotoxicity against HEK293T cells assessed as decrease in cell viability after 72 hrs by MTT assay; format: toxicity, cell-based, HEK-293T; details: human
Catalogue of IC50 at 72 h values
reported endpoint: IC50 at 72 h

[[record]]
compound = "O=C(N/N=C/C1=Cc2ccccc2OC1c1ccccc1)c1ccc(F)cc1 (stereo not drawn)"
reported_endpoint = "IC50 at 72 h"
result = "30.9 µM"

[[record]]
compound = "Cc1nnsc1C(=O)N/N=C/C1=Cc2ccccc2OC1c1ccccc1 (stereo not drawn)"
reported_endpoint = "IC50 at 72 h"
result = "30.2 µM"

[[record]]
compound = "Cc1nnsc1C(=O)N/N=C/c1c(Cl)c2ccccc2oc1=O"
reported_endpoint = "IC50 at 72 h"
result = "30.2 µM"

